tested on: CCRIS mutagenicity, Ames/micronucleus/aberration tests; test: CCRIS mutagenicity studies; settings: Test System: AMES SALMONELLA TYPHIMURIUM; Strain/Indicator: TA1537; Metabolic Activation: RAT, LIVER, S-9, AROCLOR 1254 (10%); Method: PREINCUBATION
The source made the active and inactive calls. No rule for the calls is given here.
Allowed answers: active, inactive

Field: example entries. Status: answers known.
COc1ccc(CN(CCN(C)C)c2ccccn2)cc1
inactive
O=C1CCCO1
inactive
O=C(O)c1ccc(S(=O)(=O)N(Cl)Cl)cc1
inactive
[Cl][Pd][Cl]
inactive
CCCC(=O)c1cc(O)c(O)cc1O
active

## Task I'd appreciate the recorded outcome for O=S1OCC2C(CO1)C1(Cl)C(Cl)=C(Cl)C2(Cl)C1(Cl)Cl (centres undefined) from this test.
## Result inactive

## Task I'd appreciate the recorded outcome for O=c1[nH]cc(F)c(=O)[nH]1 from this test.
## Result inactive

## Task I'd appreciate the recorded outcome for O=C1[O][Bi][O]c2ccccc21 from this test.
## Result inactive

====

system: CCRIS mutagenicity, Ames/micronucleus/aberration tests; test: CCRIS mutagenicity studies; settings: Test System: AMES SALMONELLA TYPHIMURIUM; Strain/Indicator: TA1537; Metabolic Activation: RAT, LIVER, S-9, AROCLOR 1254; Method: STANDARD PLATE
Calls of active or inactive are those of the source. How the calls were made is not given here.
Allowed answers: t for active, f for inactive

C=C(C)C(=O)OCCCC
f
O=C(O)CCc1ccccc1
f
O=C1CC(c2ccc(O)cc2)Oc2cc(O)cc(O)c21 (stereo not given)
f

Then there is this compound:
## Task I'd appreciate the recorded outcome for O=C1c2c(O)ccc3c2[C@H](c2ccc(O)c4c2[C@H]3[C@H]2O[C@H]2C4=O)[C@H]2O[C@@H]12 from this test.
## Result t

====

test system: CCRIS mutagenicity, Ames/micronucleus/aberration tests; experiment: CCRIS mutagenicity studies; conditions: Test System: E. COLI; Strain/Indicator: WP2 UVRA; Metabolic Activation: S-9; Method: PREINCUBATION
Active and inactive are the calls of the source. No rule for the calls is given here.
Allowed answers: active, inactive

Field: example entries. Status: answers known.
CCN(CC)CCCN(c1ccccc1)C1Cc2ccccc2C1
inactive
C[C@]1(Cn2ccnn2)[C@H](C(=O)O)N2C(=O)C[C@H]2S1(=O)=O
inactive

## Task I'd appreciate the recorded outcome for CCOCn1cc(F)c(=O)n(C(=O)c2cccc(C(=O)Oc3nc(OC(=O)c4ccccc4)ccc3C#N)c2)c1=O from this test.
## Result inactive

## Task I'd appreciate the recorded outcome for ClCC1CO1 (centres undefined) from this test.
## Result active

====

system: CCRIS mutagenicity, Ames/micronucleus/aberration tests; assay: CCRIS mutagenicity studies; conditions: Test System: AMES SALMONELLA TYPHIMURIUM; Strain/Indicator: TA98; Metabolic Activation: RAT, LIVER, S-9, AROCLOR 1254 (10%); Method: STANDARD PLATE
Active and inactive are the calls of the source. The rule behind the calls is not given here.
Allowed answers: 1.0 = active, 0.0 = inactive

Nc1ccn([C@@H]2C=C(CO)[C@@H](O)[C@H]2O)c(=O)n1
0.0
O=C1C=CC(=O)N1c1ccc(Cc2ccc(N3C(=O)C=CC3=O)cc2)cc1
0.0
CCCCCCCCCCCC(=O)OOC(=O)CCCCCCCCCCC
0.0

## Task I'd appreciate the recorded outcome for Nc1c(Oc2ccccc2)cc(O)c2c1C(=O)c1ccccc1C2=O from this test.
## Result 1.0

## Task I'd appreciate the recorded outcome for CCN(CC)c1ccc2nc3ccc(=[N+](CC)CC)cc-3oc2c1 from this test.
## Result 0.0

====

tested on: CCRIS mutagenicity, Ames/micronucleus/aberration tests; assay: CCRIS mutagenicity studies; conditions: Test System: AMES SALMONELLA TYPHIMURIUM; Strain/Indicator: TA100; Metabolic Activation: NONE
Active and inactive are the calls of the source. No rule for the calls is given here.
Allowed answers: active, inactive

COc1cc(C(=O)OCCCN2CCCN(CCCOC(=O)c3cc(OC)c(OC)c(OC)c3)CC2)cc(OC)c1OC
inactive
CCOC(=O)Nc1cccc2c1CN(C)CC2c1ccc(Cl)cc1 (stereo not given)
inactive
CC(C)NCC(O)COc1cccc2[nH]ccc12 (stereo not given)
inactive
CC(C)NCC(O)c1ccc2ccccc2c1 (stereo not given)
inactive
NC(Cn1ccnc1)C(=O)O (stereo not given)
inactive

## Task I'd appreciate the recorded outcome for O=C(O)COc1cc(Cl)c(Cl)cc1Cl from this test.
## Result inactive

## Task I'd appreciate the recorded outcome for O=[N+]([O-])c1cc2c3c(c1)CCc1c4c(cc(c1-3)CC2)CCCC4 from this test.
## Result active

## Task I'd appreciate the recorded outcome for O=C1CCCc2c1ccc1c([N+](=O)[O-])c3ccccc3cc21 from this test.
## Result inactive

## Task I'd appreciate the recorded outcome for CCOP(=S)(OCC)SCCl from this test.
## Result inactive

## Task I'd appreciate the recorded outcome for O=[N+]([O-])c1ccc2c(ccc3cc4c(ccc5ccccc54)cc32)c1 from this test.
## Result inactive

## Task I'd appreciate the recorded outcome for N#CCc1cn(N=O)c2ccccc12 from this test.
## Result active

## Task I'd appreciate the recorded outcome for CC(=O)Nc1ccc(CC(=O)O)cc1 from this test.
## Result inactive

## Task I'd appreciate the recorded outcome for CN=NC(C)(C)OO from this test.
## Result active

## Task I'd appreciate the recorded outcome for O=C1CCCc2cc([N+](=O)[O-])c3ccccc3c21 from this test.
## Result active

## Task I'd appreciate the recorded outcome for CO[C@@]1(NC(=O)CSC[C@@H](N)C(=O)O)C(=O)N2C(C(=O)O)=C(CSc3nnnn3C)CS[C@@H]21 from this test.
## Result inactive

====

tested on: CCRIS mutagenicity, Ames/micronucleus/aberration tests; assay: CCRIS mutagenicity studies; conditions: Test System: AMES SALMONELLA TYPHIMURIUM; Strain/Indicator: TA100; Metabolic Activation: NONE; Method: STANDARD PLATE
Active and inactive are the calls of the source. No rule for the calls is given here.
Allowed answers: active, inactive

Field: example entries. Status: answers known.
NC(=O)/N=N/C(N)=O
active
Nc1ccn([C@@H]2C=C(CO)[C@@H](O)[C@H]2O)c(=O)n1
inactive

## Task I'd appreciate the recorded outcome for CN1CCN(c2ccc3nc(Cc4ccc5nc(-c6ccc(N(CCCl)CCCl)cc6)[nH]c5c4)[nH]c3c2)CC1 from this test.
## Result inactive

## Task I'd appreciate the recorded outcome for BrCc1c2ccccc2cc2c1ccc1ccccc12 from this test.
## Result active

## Task I'd appreciate the recorded outcome for CCCCCCCCCCCCCCCCCCO from this test.
## Result inactive

## Task I'd appreciate the recorded outcome for CCCCCCCCC=O from this test.
## Result inactive

## Task I'd appreciate the recorded outcome for Cn1cnc(-c2ccccc2)c1[N+](=O)[O-] from this test.
## Result active

## Task I'd appreciate the recorded outcome for O=S1OCC2C(CO1)C1(Cl)C(Cl)=C(Cl)C2(Cl)C1(Cl)Cl (stereo not drawn) from this test.
## Result inactive

## Task I'd appreciate the recorded outcome for COc1ccc(-c2nc(-c3ccc(OC)cc3)c(-c3ccc(OC)cc3)[nH]2)cc1 from this test.
## Result inactive

## Task I'd appreciate the recorded outcome for O=c1c2ccccc2[se]n1-c1ccccc1 from this test.
## Result inactive

## Task I'd appreciate the recorded outcome for CN1CCN(c2ccc3nc(CCCc4ccc5nc(-c6ccc(N(CCCl)CCCl)cc6)[nH]c5c4)[nH]c3c2)CC1 from this test.
## Result inactive

## Task I'd appreciate the recorded outcome for Clc1cccc2c1oc1ccccc12 from this test.
## Result inactive

## Task I'd appreciate the recorded outcome for COP(=O)(OC)C(O)C(Cl)(Cl)Cl (stereo not drawn) from this test.
## Result inactive

## Task I'd appreciate the recorded outcome for ClC(Cl)(Cl)Br from this test.
## Result inactive

## Task I'd appreciate the recorded outcome for O=Cc1cccc2cccnc12 from this test.
## Result inactive

## Task I'd appreciate the recorded outcome for Cn1cnc2c(NO)ncnc21 from this test.
## Result inactive

## Task I'd appreciate the recorded outcome for O=[N+]([O-])c1ccc2ccc3c([N+](=O)[O-])c4ccccc4c4ccc1c2c34 from this test.
## Result active

## Task I'd appreciate the recorded outcome for c1ccc2c(c1)-c1cccc3cccc-2c13 from this test.
## Result inactive

## Task I'd appreciate the recorded outcome for CCC(C)Nc1snc2ccccc12 (stereo not drawn) from this test.
## Result inactive

## Task I'd appreciate the recorded outcome for [N-]=[N+]=NC[C@@H]1O[C@H](O)[C@H](O)[C@@H](O)[C@@H]1O from this test.
## Result active

## Task I'd appreciate the recorded outcome for O=[N+]([O-])C1=Cc2cc3cc4ccccc4cc3c3cccc1c23 from this test.
## Result inactive

## Task I'd appreciate the recorded outcome for CO/N=C(\C(=O)N[C@@H]1C(=O)N2C(C(=O)[O-])=C(C[n+]3ccn4ncccc43)CS[C@H]12)c1nsc(N)n1 from this test.
## Result inactive

These measurements were taken from PubChem BioAssay AID1259407.
